biological target: human PRMT6 (Homo sapiens); construct: Flag-PRMT6-His; made in house; host or cells: HEK 293F cells (BacMam baculovirus); experiment: PRMT6 Biochemical Assay (3H-SAM Flashplate, peptide substrate); conditions: Biochemical IC50 PRMT6, single experiment or average of multiple experiments
Sequence (Q96LA8 with tags, fused parts or gaps): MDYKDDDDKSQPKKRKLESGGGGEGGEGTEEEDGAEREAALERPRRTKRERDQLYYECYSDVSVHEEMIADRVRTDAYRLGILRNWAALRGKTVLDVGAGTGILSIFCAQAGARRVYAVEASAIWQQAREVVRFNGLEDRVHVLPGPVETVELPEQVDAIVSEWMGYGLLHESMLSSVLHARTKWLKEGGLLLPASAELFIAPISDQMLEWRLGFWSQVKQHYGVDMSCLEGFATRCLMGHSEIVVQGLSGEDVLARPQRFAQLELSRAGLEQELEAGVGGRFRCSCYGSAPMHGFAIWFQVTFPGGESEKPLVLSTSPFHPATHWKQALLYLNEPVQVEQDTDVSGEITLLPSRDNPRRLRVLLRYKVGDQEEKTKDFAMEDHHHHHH
Outcome measure: IC50 (nM)
Write down the numeric answer in nM and omit the unit.

Query: State IC50 (human PRMT6 (Homo sapiens)) of CNCCN(C)Cc1cnn(C2CCOC2)c1-c1ccc(OC(C)C)cc1 (stereo not shown) .
Response: 27.7

Query: Jot down IC50 (human PRMT6 (Homo sapiens)) of CN(CCN)Cc1c[nH]nc1-c1ccc(F)cc1Cl .
Response: 13.5

Query: State recorded IC50 with human PRMT6 (Homo sapiens), entry CCNCCN(C)Cc1c[nH]nc1-c1ccc(F)cc1 , no comment.
Response: 53.2

Query: Report IC50 under test system human PRMT6 (Homo sapiens) for CNCCN(C)Cc1c[nH]nc1-c1ccc(Oc2cccc(OC)c2)cc1 .
Response: 2.19

Query: Give human PRMT6 (Homo sapiens) IC50 for the following molecule: CN(CCN)Cc1cn(CCO)nc1-c1ccc(F)cc1
Response: 1040

###

target: human PRMT1 (Homo sapiens, UniProt Q99873); construct: GST-tagged PRMT1; made in house; host or cells: High Five insect cells (baculovirus); assay: PRMT1 Biochemical Assay (3H-SAM Flashplate, peptide substrate); conditions: single experiment or average of multiple experiments
Sequence (Q99873 with tags, fused parts or gaps): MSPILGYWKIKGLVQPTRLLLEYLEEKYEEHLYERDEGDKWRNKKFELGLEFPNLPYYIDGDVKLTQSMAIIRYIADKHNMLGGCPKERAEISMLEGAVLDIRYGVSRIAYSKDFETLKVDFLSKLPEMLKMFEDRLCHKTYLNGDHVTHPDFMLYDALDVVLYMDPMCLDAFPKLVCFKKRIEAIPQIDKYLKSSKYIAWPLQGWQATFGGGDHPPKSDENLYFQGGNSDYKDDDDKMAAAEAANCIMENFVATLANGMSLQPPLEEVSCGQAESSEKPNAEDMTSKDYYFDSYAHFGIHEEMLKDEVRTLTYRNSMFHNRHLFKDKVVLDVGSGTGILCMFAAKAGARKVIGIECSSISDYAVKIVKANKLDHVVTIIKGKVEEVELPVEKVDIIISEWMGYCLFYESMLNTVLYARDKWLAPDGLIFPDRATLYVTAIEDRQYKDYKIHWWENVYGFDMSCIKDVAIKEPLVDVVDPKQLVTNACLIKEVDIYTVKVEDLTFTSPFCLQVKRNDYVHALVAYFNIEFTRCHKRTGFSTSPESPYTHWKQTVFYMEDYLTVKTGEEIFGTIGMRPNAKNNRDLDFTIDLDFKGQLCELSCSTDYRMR
Listed molecules paired with reported pIC50
Schema: pIC50 number; meaning minus log10 of the concentration expressed in molar units.

molecule=Cc1ccc(-c2n[nH]cc2CN(C)CCN)c(C)c1 outcome_measure=pIC50 assay_value=6.89
molecule=CNCCN(C)Cc1c[nH]nc1-c1ccc(Oc2ccccc2)cc1 outcome_measure=pIC50 assay_value=8.56
molecule=CNCCN(C)Cc1c[nH]nc1-c1ccc(C(F)(F)F)cc1 outcome_measure=pIC50 assay_value=7.92
molecule=COc1cc(Cl)cc(-c2n[nH]cc2CN(C)CCN)c1 outcome_measure=pIC50 assay_value=7.34
molecule=CNCCN(C)Cc1cn(CC(=O)O)nc1-c1ccc(OC(C)C)cc1 outcome_measure=pIC50 assay_value=6.13

Query: Supply measured pIC50 of CNCCN(C)Cc1c[nH]nc1-c1ccccc1OC in your reply.
Response: 6.71

Query: Please report the measured pIC50 for C=CCn1cc(CN(C)CCNC)c(-c2ccc(OC(C)C)cc2)n1
Response: 7.23

Query: Provide pIC50 value for the following molecule: CNCCN(C)Cc1c[nH]nc1-c1ccc(Oc2cccc(C#N)c2)cc1
Response: 8.53

Query: Return the recorded pIC50 value; entry: CN(CCN)Cc1c[nH]nc1-c1ccc(OCCN2CCOCC2)cc1
Response: 6.64

Query: Report pIC50 for CNCCN(C)Cc1c[nH]nc1-c1ccc(Oc2cccc(C(=O)NC)c2)cc1
Response: 8.36

Query: Report pIC50, nothing else, for this molecule: CNCCN(C)Cc1c[nH]nc1-c1ccccc1C(F)(F)F
Response: 5.74

Query: Please list pIC50 recorded for the molecule CNCCN(C)Cc1cnn(CCCC(O)CO)c1-c1ccc(F)cc1 (centres unmarked)
Response: 6.11

Query: Provide measured pIC50 value, entry: Cc1c(F)cccc1-c1n[nH]cc1CN(C)CCN
Response: 6.92

Query: Fill in pIC50 for record CNCCN(C)Cc1cn(Cc2ccccn2)nc1-c1ccc(OC(C)C)cc1
Response: 6.83

Query: Tell me its pIC50 given CNCCN(C)Cc1cn(Cc2cccnc2)nc1-c1ccc(OC(C)C)cc1 as the entry.
Response: 7.21

Query: Indicate the recorded pIC50 value for this molecule: CN(CCN)Cc1c[nH]nc1-c1cccc(Cl)c1F
Response: 7.36

Query: Specify measured pIC50 for CNCCN(C)Cc1c[nH]nc1-c1ccc(O)cc1 .
Response: 7.01

Query: In one line, give reported pIC50 of the entry NCCN(Cc1c[nH]nc1-c1ccc(F)cc1)C1CC1 .
Response: 6.48

Query: In one line, give reported pIC50 of the entry CN(CCN)Cc1c[nH]nc1-c1cccc(N(C)C)c1 .
Response: 7.21

Query: Check the records and state pIC50 for CNCCN(C)Cc1c[nH]nc1-c1ccc(F)c(F)c1
Response: 7.89
